molecular target: 5-hydroxytryptamine receptor 2C (Homo sapiens); assay: DRUGMATRIX: Serotonin (5-Hydroxytryptamine) 5-HT2C radioligand binding (ligand: [3H] Mesulergine); type: cell membranes, CHO-K1, Membrane; details: Not Active = under 50% inhibition at 10 µM; read-out: IC50
Sequence (P28335 whole entry): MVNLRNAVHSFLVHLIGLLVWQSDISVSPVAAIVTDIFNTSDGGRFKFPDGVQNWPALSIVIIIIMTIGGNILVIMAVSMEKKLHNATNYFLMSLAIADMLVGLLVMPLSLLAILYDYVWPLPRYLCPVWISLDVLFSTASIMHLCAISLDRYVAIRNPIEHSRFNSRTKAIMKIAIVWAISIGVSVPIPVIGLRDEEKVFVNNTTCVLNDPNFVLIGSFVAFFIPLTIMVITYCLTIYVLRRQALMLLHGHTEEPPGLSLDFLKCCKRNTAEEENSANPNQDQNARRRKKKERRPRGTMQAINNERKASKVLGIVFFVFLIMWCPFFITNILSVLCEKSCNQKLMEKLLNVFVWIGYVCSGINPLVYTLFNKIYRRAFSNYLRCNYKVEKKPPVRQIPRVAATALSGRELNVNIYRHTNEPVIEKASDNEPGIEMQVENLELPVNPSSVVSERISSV
RECORDED_ENDPOINT: pIC50
Lab note — pIC50 values are minus log10 of concentrations in M.

Lookup result for CC(CN1c2ccccc2Sc2ccccc21)N(C)C (centres undefined) ; measured pIC50: 7.92

Looking up Clc1cc(Cl)c(OCC#CI)cc1Cl , I see its pIC50 listed as 5.58

The value of pIC50 measured for the compound CCN(CC)CCNC(=O)c1cc(Cl)c(N)cc1OC [METOCLOPRAMIDE] turned out to be 5.62

For COc1ccccc1OCCNCC(O)COc1cccc2[nH]c3ccccc3c12 (centres undefined) the compound record lists pIC50 as 6.94

Note to self: pIC50 recorded for CCOc1cc(N)c(Cl)cc1C(=O)NCC1CN(Cc2ccc(F)cc2)CCO1 (centres undefined) [MOSAPRIDE] was 6.40

// CC(=O)Nc1ccc2c(c1)Cc1ccccc1-2 : pIC50 value = 5.67

For this compound ( c1ccc2c(c1)Nc1ccccc1S2 ), measured pIC50 is 5.65

For reference, reported pIC50 for Cc1cc(C(C)(C)C)c(O)c(C)c1CC1=NCCN1 stands at 6.24

# compound CC(N)Cc1c[nH]c2ccc(OCc3cccs3)cc12 (centres undefined) ; its pIC50 = 6.69
